Parameter DBIL: see the listing below.
# Species on record: Rattus norvegicus
# method: Open TG-GATES - Regimen: Single
# Assay type: toxicity, organism-based, Sprague-Dawley
# Parameters: regimen Single, gender Male, age 6 weeks
# condition-label: in vivo, po, 100 mg/kg, 24 h, tissue Plasma, route gavage, dose level Low
Numbers only; they are read as mg/dL.

Example cases with answers are listed next.
CCOC(=O)CCC(=O)O[C@H]1[C@H](O[C@@H]2[C@@H](C)[C@H](O[C@H]3C[C@@](C)(OC)[C@@H](O)[C@H](C)O3)[C@@H](C)C(=O)O[C@H](CC)[C@@](C)(O)[C@H](O)[C@@H](C)C(=O)[C@H](C)C[C@@]2(C)O)O[C@H](C)C[C@@H]1N(C)C [ERYTHROMYCIN ETHYLSUCCINATE]: 0.002
COC1=CC(=O)C[C@@H](C)[C@]12Oc1c(Cl)c(OC)cc(OC)c1C2=O: 0.1
NC(N)=Nc1nc(CSCCC(N)=NS(N)(=O)=O)cs1: 0.076

Task: Please look up its DBIL: COc1ccc2[nH]c([S+]([O-])Cc3ncc(C)c(OC)c3C)nc2c1 (centres undefined)
Result: 0.092

* * *

# Species on record: Rattus norvegicus
# method: Open TG-GATES - Regimen: Daily Repeat
# Assay type: toxicity, organism-based, Sprague-Dawley
# Design: regimen Daily Repeat, gender Male, age 6 weeks
# condition-label: in vivo, po, 100 mg/kg, […], tissue Blood, route gavage, dose level Low, time 28 day
measurement-name: PT (s)
Numbers only; they are read as s.

Example cases with answers are listed next.
COc1ccc2[nH]c([S+]([O-])Cc3ncc(C)c(OC)c3C)nc2c1 (stereo not given): 12.3
COC1=CC(=O)C[C@@H](C)[C@]12Oc1c(Cl)c(OC)cc(OC)c1C2=O: 12.5
CCOc1ccc(NC(=O)CC(C)O)cc1 (stereo not given): 14.1

Task: Please look up its PT: NC(N)=Nc1nc(CSCCC(N)=NS(N)(=O)=O)cs1
Result: 12.8

Task: Please look up its PT: CCOC(=O)CCC(=O)O[C@H]1[C@H](O[C@@H]2[C@@H](C)[C@H](O[C@H]3C[C@@](C)(OC)[C@@H](O)[C@H](C)O3)[C@@H](C)C(=O)O[C@H](CC)[C@@](C)(O)[C@H](O)[C@@H](C)C(=O)[C@H](C)C[C@@]2(C)O)O[C@H](C)C[C@@H]1N(C)C [ERYTHROMYCIN ETHYLSUCCINATE]
Result: 16

* * *

# Species on record: Rattus norvegicus
# method: Open TG-GATES - Regimen: Daily Repeat
# Type: toxicity, organism-based, Sprague-Dawley
# Parameters: regimen Daily Repeat, gender Male, age 6 weeks
# condition-label: in vivo, po, 0 mg/kg, […], tissue Plasma, route gavage, dose level Control, time 7 day
measurement-name: Ca (mg/dL)
Numbers only; they are read as mg/dL.

Example cases with answers are listed next.
CCOC(=O)CCC(=O)O[C@H]1[C@H](O[C@@H]2[C@@H](C)[C@H](O[C@H]3C[C@@](C)(OC)[C@@H](O)[C@H](C)O3)[C@@H](C)C(=O)O[C@H](CC)[C@@](C)(O)[C@H](O)[C@@H](C)C(=O)[C@H](C)C[C@@]2(C)O)O[C@H](C)C[C@@H]1N(C)C [ERYTHROMYCIN ETHYLSUCCINATE]: 10.7
CC1=C(/C=C/C(C)=C/C=C/C(C)=C/CO)C(C)(C)CCC1 [RETINOL]: 10.7
CN(C)CCN(Cc1cccs1)c1ccccn1: 10.6
NNC(=O)c1ccncc1 [ISONIAZID]: 10.6
NC(N)=Nc1nc(CSCCC(N)=NS(N)(=O)=O)cs1 [FAMOTIDINE]: 10.7
COc1ccc2[nH]c([S+]([O-])Cc3ncc(C)c(OC)c3C)nc2c1 (stereo not given) [OMEPRAZOLE]: 10.8
COC1=CC(=O)C[C@@H](C)[C@]12Oc1c(Cl)c(OC)cc(OC)c1C2=O [GRISEOFULVIN]: 10.8
CCCNC(=O)NS(=O)(=O)c1ccc(Cl)cc1 [CHLORPROPAMIDE]: 10.9
CCOc1ccc(NC(=O)CC(C)O)cc1 (stereo not given) [BUCETIN]: 11

Consider now this further molecule.
Task: Please look up its Ca: O=C(CCCN1CCC(O)(c2ccc(Cl)cc2)CC1)c1ccc(F)cc1 [HALOPERIDOL]
Result: 11.2

* * *

Parameter TP: see the listing below.
# Species on record: Rattus norvegicus
# method: Open TG-GATES - Regimen: Daily Repeat
# Assay type: toxicity, organism-based, Sprague-Dawley
# Design: regimen Daily Repeat, gender Male, age 6 weeks
# condition-label: in vivo, po, 100 mg/kg, […], tissue Plasma, route gavage, dose level Low, time 7 day
Numbers only; they are read as g/dL.

Task: Please look up its TP: COC1=CC(=O)C[C@@H](C)[C@]12Oc1c(Cl)c(OC)cc(OC)c1C2=O
Result: 5.7

Task: Please look up its TP: COc1ccc2[nH]c([S+]([O-])Cc3ncc(C)c(OC)c3C)nc2c1 (stereo not given)
Result: 5.7

* * *

# Organism: Rattus norvegicus
# method: Open TG-GATES - Regimen: Single
# Type: toxicity, organism-based, Sprague-Dawley
# Parameters: regimen Single, gender Male, age 6 weeks
# condition-label: in vivo, po, 100 mg/kg, 6 h, tissue Plasma, route gavage, dose level Low
measurement-name: Ca (mg/dL)
Numbers only; they are read as mg/dL.

Example cases with answers are listed next.
CCOC(=O)CCC(=O)O[C@H]1[C@H](O[C@@H]2[C@@H](C)[C@H](O[C@H]3C[C@@](C)(OC)[C@@H](O)[C@H](C)O3)[C@@H](C)C(=O)O[C@H](CC)[C@@](C)(O)[C@H](O)[C@@H](C)C(=O)[C@H](C)C[C@@]2(C)O)O[C@H](C)C[C@@H]1N(C)C [ERYTHROMYCIN ETHYLSUCCINATE]: 10.5
COc1ccc2[nH]c([S+]([O-])Cc3ncc(C)c(OC)c3C)nc2c1 (centres undefined) [OMEPRAZOLE]: 10.6
NC(N)=Nc1nc(CSCCC(N)=NS(N)(=O)=O)cs1 [FAMOTIDINE]: 10.7

Task: Please look up its Ca: COC1=CC(=O)C[C@@H](C)[C@]12Oc1c(Cl)c(OC)cc(OC)c1C2=O [GRISEOFULVIN]
Result: 10.8

* * *

# Species: Rattus norvegicus
# method: Open TG-GATES - Regimen: Daily Repeat
# Type: toxicity, organism-based, Sprague-Dawley
# Set-up: regimen Daily Repeat, gender Male, age 6 weeks
# condition-label: in vivo, po, 0 mg/kg, […], tissue Plasma, route gavage, dose level Control, time 28 day
Cut-off 40 IU/L on ALT: below means True, at or above means False.

# count of solved cases: 5
CN(C)CCN(Cc1cccs1)c1ccccn1: False
COC1=CC(=O)C[C@@H](C)[C@]12Oc1c(Cl)c(OC)cc(OC)c1C2=O: True
CCOC(=O)CCC(=O)O[C@H]1[C@H](O[C@@H]2[C@@H](C)[C@H](O[C@H]3C[C@@](C)(OC)[C@@H](O)[C@H](C)O3)[C@@H](C)C(=O)O[C@H](CC)[C@@](C)(O)[C@H](O)[C@@H](C)C(=O)[C@H](C)C[C@@]2(C)O)O[C@H](C)C[C@@H]1N(C)C [ERYTHROMYCIN ETHYLSUCCINATE]: False
CC1=C(/C=C/C(C)=C/C=C/C(C)=C/CO)C(C)(C)CCC1: False
CN1C(=O)CN=C(c2ccccc2)c2cc(Cl)ccc21: True

Okay, next one:
Task: Would you kindly verify if ALT of CCOc1ccc(NC(=O)CC(C)O)cc1 (stereo not drawn) is strictly less than 40 IU/L?
Result: True

* * *

# Species on record: Rattus norvegicus
# method: Open TG-GATES - Regimen: Single
# Type: toxicity, organism-based, Sprague-Dawley
# Design: regimen Single, gender Male, age 6 weeks
# condition-label: in vivo, po, 0 mg/kg, 3 h, tissue Plasma, route gavage, dose level Control
Parameter GLC: see the listing below.
Value and unit, in that order.

CC/C(=C(\c1ccccc1)c1ccc(OCCN(C)C)cc1)c1ccccc1: 173.6 mg/dL
CC(C)OC(=O)C(C)(C)Oc1ccc(C(=O)c2ccc(Cl)cc2)cc1 [FENOFIBRATE]: 182.6 mg/dL
NNC(=O)c1ccncc1: 195.6 mg/dL
NC(N)=Nc1nc(CSCCC(N)=NS(N)(=O)=O)cs1: 197.2 mg/dL
COc1ccc2[nH]c([S+]([O-])Cc3ncc(C)c(OC)c3C)nc2c1 (stereo not drawn): 191.8 mg/dL

Task: Please look up its GLC: CN(C)CCN(Cc1cccs1)c1ccccn1
Result: 181.8 mg/dL

Task: Please look up its GLC: CC1=C(/C=C/C(C)=C/C=C/C(C)=C/CO)C(C)(C)CCC1
Result: 181 mg/dL

Task: Please look up its GLC: COc1cc2c(c(OC)c1OC)-c1ccc(OC)c(=O)cc1[C@@H](NC(C)=O)CC2
Result: 208.6 mg/dL

Task: Please look up its GLC: CN(C)CCCN1c2ccccc2CCc2ccc(Cl)cc21
Result: 182.4 mg/dL

Task: Please look up its GLC: CN(C)CCCN1c2ccccc2CCc2ccccc21
Result: 183.2 mg/dL

Task: Please look up its GLC: CCOC(=O)CCC(=O)O[C@H]1[C@H](O[C@@H]2[C@@H](C)[C@H](O[C@H]3C[C@@](C)(OC)[C@@H](O)[C@H](C)O3)[C@@H](C)C(=O)O[C@H](CC)[C@@](C)(O)[C@H](O)[C@@H](C)C(=O)[C@H](C)C[C@@]2(C)O)O[C@H](C)C[C@@H]1N(C)C [ERYTHROMYCIN ETHYLSUCCINATE]
Result: 188.2 mg/dL

Task: Please look up its GLC: COC1=CC(=O)C[C@@H](C)[C@]12Oc1c(Cl)c(OC)cc(OC)c1C2=O
Result: 195.4 mg/dL

Task: Please look up its GLC: Cc1ccc(C)c(OCCCC(C)(C)C(=O)O)c1
Result: 180.6 mg/dL

Task: Please look up its GLC: CCOc1ccc(NC(=O)CC(C)O)cc1 (stereo not drawn)
Result: 178 mg/dL

Task: Please look up its GLC: O=C(CCCN1CCC(O)(c2ccc(Cl)cc2)CC1)c1ccc(F)cc1
Result: 185.6 mg/dL

Task: Please look up its GLC: CN1C(=O)CN=C(c2ccccc2)c2cc(Cl)ccc21
Result: 187.4 mg/dL

Task: Please look up its GLC: CCCNC(=O)NS(=O)(=O)c1ccc(Cl)cc1 [CHLORPROPAMIDE]
Result: 176.6 mg/dL

Task: Please look up its GLC: C[C@@H]1C[C@H]2[C@@H]3CCC4=CC(=O)C=C[C@]4(C)[C@@]3(F)[C@@H](O)C[C@]2(C)[C@@]1(O)C(=O)CO
Result: 193.2 mg/dL

Source: ChEMBL document CHEMBL3885861
